// reported Max contractile force for each item listed
organism: Oryctolagus cuniculus; experiment: Maximum contractile force in rabbit aorta strips; format: functional

{"compound": "CC1=NC(C)=C(C(=O)OCCN2C(=O)c3ccccc3S2(=O)=O)C(c2cccc([N+](=O)[O-])c2)/C1=C(\\O)OCC1CCCO1 (stereo not drawn)", "Max contractile force (mg)": 570}
{"compound": "COC(=O)C1=C(C)NC(C)=C([N+](=O)[O-])C1c1ccccc1C(F)(F)F (stereo not drawn)", "Max contractile force (mg)": 2570}
{"compound": "CC1=NC(C)=C(C(=O)OCCN2C(=O)c3ccccc3S2(=O)=O)C(c2ccccc2[N+](=O)[O-])/C1=C(\\O)OCC1CCCCO1 (stereo not drawn)", "Max contractile force (mg)": 990}
